Tested on: VRE 49
Test: Bactericidal activity test (MBC, phenol coefficient measuring method)
Assay type: cell-based, vancomycin-resistant enterococci
Details: 1 min
Parameter: minimal bactericidal concentration (MBC) (µg/mL)
A number alone suffices; assume µg/mL.

q: Need minimal bactericidal concentration (MBC), item "CC(=O)O.CCCCCCCCCNC1=NC(C)(C)N=C(NCc2ccccc2)N1"
a: 25

q: Note, next up: "CC(=O)O.CCCCCCCCNC1=NC(C)(C)N=C(NCc2ccc(C)cc2)N1"
a: 25

q: Would you mind doing "CC(=O)O.CCCCCCCCNC1=NC(C)(C)N=C(NCCCCCC)N1" as well?
a: 25

---

Can you tell me minimal bactericidal concentration (MBC) for the items I'm about to list?
Test system: P. aeruginosa PAO-1
Assay: Bactericidal activity test (MBC, phenol coefficient measuring method)
Type: cell-based
Conditions: 1 min
State the answer as a number, implicitly in µg/mL.

q: Under P. aeruginosa PAO-1: minimal bactericidal concentration (MBC) value of "CCCCCCCCCCNC1=NC(C)(C)N=C(NCc2ccccc2)N1.CS(=O)(=O)O" ?
a: 3.1

q: How about this compound: "CCCCCCCCCCCCCCNC1=NC(C)(C)N=C(N)N1.Cl"
a: 3.1

q: Now the same for "CCCCCCCCNC1=NC(C)(C)N=C(NCc2ccc(C)cc2)N1"
a: 3.1

q: Another: "CC(=O)O.CCCCCCCCCNC1=NC(C)(C)N=C(NCc2ccccc2)N1"
a: 6.3

q: What would you report for "CC(=O)O.CCCCCCCCNC1=NC(C)(C)N=C(NCC2CCCCC2)N1" ?
a: 3.1

q: Another: CCCCCCCCCCC1N=C(N)N=C(N)N1c1ccc(F)c(F)c1F.Cl (stereo not drawn)
a: 12.5

q: And "CC(=O)O.CCCCCCCCNC1=NC(C)(C)N=C(Nc2cnc3ccccc3c2)N1" ?
a: 12.5

q: Try this compound too: "CC(=O)O.CCCCCCCCNC1=NC(C)(C)N=C(NCCCCCC)N1"
a: 6.3

q: Another compound to look at: "CCCCCCCCCCNC1=NC(C)(C)N=C(NCc2ccc(OC)cc2)N1.CS(=O)(=O)O"
a: 6.3

---

System: MRSA KM 97-53
Test: Bactericidal activity test (MBC, phenol coefficient measuring method)
Format: cell-based, methicillin-resistant Staphylococcus aureus
Conditions: 1 min
Parameter: minimal bactericidal concentration (MBC) (µg/mL)
Give just the numeric value; µg/mL need not be written.

q: For the compound "CC(=O)O.CCCCCCCCNC1=NC(C)(C)N=C(NCCCCCC)N1" , what minimal bactericidal concentration (MBC) is on record?
a: 50

q: Now the same for "CC(=O)O.CCCCCCCCNC1=NC(C)(C)N=C(NCc2ccc(C)cc2)N1"
a: 50

q: Try this compound too: N=C(NCCCCCCNC(=N)NC(=N)Nc1ccc(Cl)cc1)NC(=N)Nc1ccc(Cl)cc1.O=C(O)[C@H](O)[C@@H](O)[C@H](O)[C@H](O)CO.O=C(O)[C@H](O)[C@@H](O)[C@H](O)[C@H](O)CO [Control drug, chlorhexidine gluconate, reference compound]
a: 500

q: Please give the result for "CC(=O)O.CCCCCCCCCNC1=NC(C)(C)N=C(NCc2ccccc2)N1" too.
a: 50

---

Assign minimal bactericidal concentration (MBC) to each entry below.
Test system: MRSA KM 97-108
Assay: Bactericidal activity test (MBC, phenol coefficient measuring method)
Type: cell-based, methicillin-resistant Staphylococcus aureus
Conditions: 5 min
Please reply with the bare figure in µg/mL and do not write the unit itself.

q: What measured minimal bactericidal concentration (MBC) goes with CC(=O)O.CCCCCCCCNC1=NC(C)(C)N=C(NCCCCCC)N1 [compound 68] ?
a: 25

q: Similarly, N=C(NCCCCCCNC(=N)NC(=N)Nc1ccc(Cl)cc1)NC(=N)Nc1ccc(Cl)cc1.O=C(O)[C@H](O)[C@@H](O)[C@H](O)[C@H](O)CO.O=C(O)[C@H](O)[C@@H](O)[C@H](O)[C@H](O)CO [Control drug, chlorhexidine gluconate, reference compound] ?
a: 500

q: Try this compound too: CC(=O)O.CCCCCCCCNC1=NC(C)(C)N=C(NCc2ccc(C)cc2)N1 [compound 58]
a: 25

q: Record: CC(=O)O.CCCCCCCCCNC1=NC(C)(C)N=C(NCc2ccccc2)N1 [compound 48]
a: 25

Data origin, for the record: patent US7622469B2
